Taken from ChEMBL document CHEMBL2218924.

residual activity values by entry
Biological target: Tyrosine-protein kinase ZAP-70 (Homo sapiens)
Sequence (whole entry): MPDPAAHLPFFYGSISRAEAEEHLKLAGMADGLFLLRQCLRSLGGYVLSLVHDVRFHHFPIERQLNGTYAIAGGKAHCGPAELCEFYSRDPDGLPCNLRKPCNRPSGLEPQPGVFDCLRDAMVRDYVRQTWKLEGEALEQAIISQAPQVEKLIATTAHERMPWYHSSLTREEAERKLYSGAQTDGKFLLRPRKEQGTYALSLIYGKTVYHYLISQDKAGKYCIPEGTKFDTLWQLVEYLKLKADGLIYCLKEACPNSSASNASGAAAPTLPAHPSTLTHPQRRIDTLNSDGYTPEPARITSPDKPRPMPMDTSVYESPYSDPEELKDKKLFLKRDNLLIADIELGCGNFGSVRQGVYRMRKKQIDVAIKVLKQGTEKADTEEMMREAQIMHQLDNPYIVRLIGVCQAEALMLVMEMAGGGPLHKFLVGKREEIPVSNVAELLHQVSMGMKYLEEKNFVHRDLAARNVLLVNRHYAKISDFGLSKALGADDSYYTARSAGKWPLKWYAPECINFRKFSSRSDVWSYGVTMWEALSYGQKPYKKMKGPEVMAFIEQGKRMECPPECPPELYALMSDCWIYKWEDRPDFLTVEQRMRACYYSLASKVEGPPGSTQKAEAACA
Conditions: at 1 µM
quantity-measured: residual activity

{"molecule": "Nc1ncnc2[nH]nc(Nc3ccc(F)cc3)c12", "quantity-measured": "residual activity", "result": "99%"}
{"molecule": "O=C1NC(=O)C(c2cn(CCCn3ccnc3)c3ccccc23)=C1Nc1ccccc1", "quantity-measured": "residual activity", "result": "101%"}
{"molecule": "COc1cc2nccc(Oc3ccc(NC(=O)Nc4cc(C)on4)c(Cl)c3)c2cc1OC", "quantity-measured": "residual activity", "result": "123%"}
{"molecule": "Nc1ncnc2c1c(-c1ccc(Oc3ccccc3)cc1)cn2C1CCCC1", "quantity-measured": "residual activity", "result": "102%"}
{"molecule": "O=C(c1cc2cc(O)ccc2[nH]1)c1cc2cc(O)ccc2[nH]1", "quantity-measured": "residual activity", "result": "127%"}
{"molecule": "CCCCc1c(-c2ccc(OC)cc2)[nH]c2nccnc12", "quantity-measured": "residual activity", "result": "111%"}
{"molecule": "COc1ccc(-c2cnc3c(-c4ccsc4)cnn3c2)cc1", "quantity-measured": "residual activity", "result": "122%"}
{"molecule": "CC(C)(C)n1nc(Cc2cccc3ccccc23)c2c(N)ncnc21", "quantity-measured": "residual activity", "result": "97%"}
{"molecule": "Cn1sc(=O)n(Cc2ccccc2)c1=O", "quantity-measured": "residual activity", "result": "98%"}
{"molecule": "O=c1c(-c2ccc(F)cc2)c(-c2ccncc2)[nH]n1-c1ccc(Cl)cc1", "quantity-measured": "residual activity", "result": "127%"}
{"molecule": "CCN(CC)CCNC(=O)c1c(C)[nH]c(/C=C2\\C(=O)Nc3ccc(Cl)cc32)c1C", "quantity-measured": "residual activity", "result": "116%"}
{"molecule": "O=C1NC(=O)c2c1c1c3ccccc3[nH]c1n1cncc21", "quantity-measured": "residual activity", "result": "97%"}
{"molecule": "COc1ccc2c(c1)c(C1=C(c3c[nH]c4ccccc34)C(=O)NC1=O)cn2CCCN(C)C", "quantity-measured": "residual activity", "result": "99%"}
{"molecule": "O=C1Nc2ccc(Cl)cc2/C1=C/c1cc(Cl)c(O)c(Cl)c1", "quantity-measured": "residual activity", "result": "96%"}
{"molecule": "O=C(NC(NC(=S)Nc1ccc(F)c([N+](=O)[O-])c1)C(Cl)(Cl)Cl)C(c1ccccc1)c1ccccc1 (stereo unspecified)", "quantity-measured": "residual activity", "result": "126%"}
{"molecule": "O=C(CCCc1ccc(-c2ccccc2F)cc1)Nc1ccc(O)cc1", "quantity-measured": "residual activity", "result": "109%"}
